Provenance of the data: patent US20140357543A1

- Target under test: T1, alcalase (trade name "Alcalase 2.5L", Novozymes) (UniProt P00780)
- T1 sequence (looked up): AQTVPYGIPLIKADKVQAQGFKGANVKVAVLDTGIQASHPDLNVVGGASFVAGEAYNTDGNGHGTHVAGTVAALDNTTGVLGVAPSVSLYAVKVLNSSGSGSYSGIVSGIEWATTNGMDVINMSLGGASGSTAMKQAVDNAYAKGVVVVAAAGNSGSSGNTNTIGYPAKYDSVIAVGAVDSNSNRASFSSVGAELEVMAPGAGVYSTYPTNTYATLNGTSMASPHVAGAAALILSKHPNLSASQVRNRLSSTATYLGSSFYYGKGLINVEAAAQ
- Assay details: cell-based or functional assay
Quantity: Protease activity upon dilution (%) immediately after preparation

Binder: proteinaceous protease inhibitor of SEQ ID NO:2 (protein) TDTGDHHNQKTDWPELVGKSVEEAKKVILQDKSEAQIVVLPVGTIVTMEYRIDRVRLFVDSLDKIAQVPRVG
Unit symbol: %
Measured result: 100
--
Binder: proteinaceous protease inhibitor of SEQ ID NO:14 (protein) TDTGDHHNQKTEWPELVGKSVEEAKKVILQDKSEAQIVVLPVGTIVTMEYHIDRVRLFVDSLDKIAQVPRVG
Unit symbol: %
Measured result: 85
--
Binder: proteinaceous protease inhibitor of SEQ ID NO:36 (protein) MSSVEKKPEGVNTGAGDRHNLKTEWPELVGKSVEEAKKVILQDKSEAQIIVLPVGTIVTMEYRIDRVRLFVDKLDNIAQVPAVG
Unit symbol: %
Measured result: 81
--
Binder: proteinaceous protease inhibitor of SEQ ID NO:5 (protein) TDTGDHHNQKTEWPELVGKSVEEAKKVILQDKSEAQILVLPVGTIVTMEYRIDRVRLFVDSLDKIAQVPRVG
Unit symbol: %
Measured result: 100
--
Binder: proteinaceous protease inhibitor of SEQ ID NO:40 (protein) TECGGGGGAKTSWPEVVGLSVEEAKKVILKDKPDADIVVLPVGSVVTADYRPNRVRIFVDIVAQTPHVG
Unit symbol: %
Measured result: 100
